- METHOD DESCRIPTION: in vitro
- TEST CONDITIONS: human, A549 cells
Would you kindly list selectivity ratio for each of these molecules?

Worked set:
{"columns": ["MOLECULE", "selectivity ratio"],
 "data": [
  ["CCCCn1cc(CO[C@@H]2O[C@H](CO)[C@H]3OC(C)(C)O[C@@H]23)nn1", "> 17.9"],
  ["CCCCn1cc(COC[C@H]2OC(O)[C@H](O)[C@@H](O)[C@H]2O)nn1 (stereo partly specified)", "> 8.9"],
  ["OCc1cn([C@@H]2O[C@H](CO)[C@@H](O)[C@H]2O)nn1", "> 19.7"],
  ["OC1O[C@H](COCc2cn(CC(Cn3cc(COC[C@H]4OC(O)[C@H](O)[C@@H](O)[C@H]4O)nn3)(Cn3cc(COC[C@H]4OC(O)[C@H](O)[C@@H](O)[C@H]4O)nn3)Cn3cc(COC[C@H]4OC(O)[C@H](O)[C@@H](O)[C@H]4O)nn3)nn2)[C@H](O)[C@H](O)[C@H]1O (stereo partly specified)", "> 3.2"],
  ["CCCCn1cc(CO[C@@H]2O[C@H](CN=[N+]=[N-])[C@H]3OC(C)(C)O[C@@H]23)nn1", 38.5],
  ["CC1(C)O[C@H]2[C@H](OCc3cn(CC(Cn4cc(CO[C@@H]5O[C@H](CO)[C@H]6OC(C)(C)O[C@@H]56)nn4)(Cn4cc(CO[C@@H]5O[C@H](CO)[C@H]6OC(C)(C)O[C@@H]56)nn4)Cn4cc(CO[C@@H]5O[C@H](CO)[C@H]6OC(C)(C)O[C@@H]56)nn4)nn3)O[C@H](CO)[C@H]2O1", 6.2],
  ["NC(=O)c1ncn([C@@H]2O[C@H](CO)[C@@H](O)[C@H]2O)n1", 15.9],
  ["CCCCn1cc(CO[C@@H]2O[C@H](Cn3cc(COC[C@@H](O)[C@H](O)[C@H](O)[C@@H](O)CO)nn3)[C@H]3OC(C)(C)O[C@@H]23)nn1", "> 2.6"]
]}

Batch: selectivity ratio for all items listed.
1. CCCCn1cc(CO[C@@H]2O[C@H](Cn3cc(COC[C@H]4OC(O)[C@H](O)[C@@H](O)[C@H]4O)nn3)[C@H]3OC(C)(C)O[C@@H]23)nn1 (stereo partly specified)
2. CC1(C)O[C@@H]2[C@H](O1)[C@@H](CO)O[C@H]2n1cc(CO)nn1
3. CC(=O)OC[C@H]1O[C@@H](n2cc(CO)nn2)[C@H](OC(C)=O)[C@@H]1OC(C)=O

Reply text:
["> 48.5", "> 11.6", "> 3.1"]
